// data source = the supplement of paper PMC13380429

system: Vero E6 infected with SARS-CoV-2; test: inhibition of SARS-CoV-2 cytopathic effect; higher = more antiviral protection, active = above 15; conditions: 8.33 nM; 48 h
Structures can show the parent of a compound that is named as a salt.
Property Label: inhibition of SARS-CoV-2 cytopathic effect (%)
Write the answer as a number in %, unit excluded.

| Molecule | Observed Result |
| --- | --- |
| CN[C@@H]1[C@H](O[C@H]2[C@H](O[C@H]3[C@H](O)[C@@H](O)[C@H](N=C(N)N)[C@@H](O)[C@@H]3N=C(N)N)O[C@@H](C)[C@]2(O)C=O)O[C@@H](CO)[C@H](O)[C@H]1O [STREPTOMYCIN SULFATE [5mM; 10% aq DMSO + 5mM ethanolamine]] | -1.64 |

// inhibition of SARS-CoV-2 cytopathic effect lookup, key: Cn1c(=O)c2[nH]cnc2n(C)c1=O
-0.66

// inhibition of SARS-CoV-2 cytopathic effect lookup, key: CCCCCCCCCCCCCCCC[N+](C)(C)CCN(Cc1ccc(OC)cc1)c1ncccn1
-1.07

// inhibition of SARS-CoV-2 cytopathic effect lookup, key: NCCc1c[nH]cn1
1.36

// inhibition of SARS-CoV-2 cytopathic effect lookup, key: COc1ccc(O)cc1
-1.51

// inhibition of SARS-CoV-2 cytopathic effect lookup, key: CN/C(=N\c1ccc(C2=NNC(=O)CC2C)cc1)NC#N (stereo not given)
1.14

// inhibition of SARS-CoV-2 cytopathic effect lookup, key: CCN[C@H]1CN(CCCOC)S(=O)(=O)c2sc(S(N)(=O)=O)cc21 [brinzolamide]
-1.59

// inhibition of SARS-CoV-2 cytopathic effect lookup, key: COc1ccc(N2CCOCC2)c2sc(NC(=O)N3CCC(C)(O)CC3)nc12
8.03

// inhibition of SARS-CoV-2 cytopathic effect lookup, key: O=C(OC[C@H]1O[C@@H](OC(=O)c2cc(O)c(O)c(OC(=O)c3cc(O)c(O)c(O)c3)c2)[C@H](OC(=O)c2cc(O)c(O)c(OC(=O)c3cc(O)c(O)c(O)c3)c2)[C@@H](OC(=O)c2cc(O)c(O)c(OC(=O)c3cc(O)c(O)c(O)c3)c2)[C@@H]1OC(=O)c1cc(O)c(O)c(OC(=O)c2cc(O)c(O)c(O)c2)c1)c1cc(O)c(O)c(OC(=O)c2cc(O)c(O)c(O)c2)c1
0.91

// inhibition of SARS-CoV-2 cytopathic effect lookup, key: CCCCCCCCCCCCc1ccc(S(=O)(=O)Nc2nncs2)cc1
0.48

// inhibition of SARS-CoV-2 cytopathic effect lookup, key: CCOCc1nc2c(N)nc3ccccc3c2n1CC(C)(C)O
3.82
